// data source = patent US4952408A

- test_details: plasma pharmacokinetics of free and liposomal vincristine (radioimmunoassay)
- Type: in vivo, CD2 F1 mice
- assay_setup: mouse, iv, 1 mg/kg; plasma; 1.0 mg; 2h; read-out: plasma level
readout_type: concentration at 2 h (µg/mL)
Numbers only, in µg/mL.

So for CC[C@]1(O)C[C@H]2CN(CCc3c([nH]c4ccccc34)[C@@](C(=O)OC)(c3cc4c(cc3OC)N(C=O)[C@H]3[C@@](O)(C(=O)OC)[C@H](OC(C)=O)[C@]5(CC)C=CCN6CC[C@]43[C@@H]65)C2)C1 [free vincristine, vincristine] , the logged concentration at 2 h turned out to be 0.05
